- Organism: Rattus norvegicus
- runDescription: DrugMatrix - Regimen: Daily Repeat
- Assay type: toxicity, organism-based, Sprague-Dawley
- Parameters: regimen Daily Repeat, gender Male, age 6-8 weeks
- conditionContext: in vivo, po, 0 mg/kg, 72 h, tissue Blood, route oral GAVAGE, dose level Control, time 3 day, […]
metric: ABSOLUTE SEGMENTED NEUTROPHIL (CELLS/uL)
The response must be a number in CELLS/uL with no trailing unit.

# compound, unitSpec, valueObserved
data = [
    ("CC(C)c1c(C(=O)Nc2ccccc2)c(-c2ccccc2)c(-c2ccc(F)cc2)n1CC[C@@H](O)C[C@@H](O)CC(=O)O [ATORVASTATIN]", "CELLS/uL", 535.5),
]

Specify reported ABSOLUTE SEGMENTED NEUTROPHIL for the compound shown: CCc1ccc(CCOc2ccc(CC3SC(=O)NC3=O)cc2)nc1 (centres undefined) [PIOGLITAZONE]
960.67

Provide ABSOLUTE SEGMENTED NEUTROPHIL value for the following compound: CS(=O)(=O)Nc1ccc([N+](=O)[O-])cc1Oc1ccccc1 [NIMESULIDE]
744.67

Determine from records and report ABSOLUTE SEGMENTED NEUTROPHIL for "CCCCC(=O)N(Cc1ccc(-c2ccccc2-c2nnn[nH]2)cc1)[C@H](C(=O)O)C(C)C"
516.83

----------
- Organism: Rattus norvegicus
- runDescription: DrugMatrix - Regimen: Daily Repeat
- Format: toxicity, organism-based, Sprague-Dawley
- Parameters: regimen Daily Repeat, gender Male, age 6-8 weeks
- conditionContext: in vivo, po, 0 mg/kg, 72 h, tissue Blood, route oral GAVAGE, dose level Control, time 3 day, vehicle 100 % WATER
Reported ABSOLUTE EOSINOPHIL by item:
Note: unit CELLS/uL is implicit; provide only the numeric part.

# compound, ABSOLUTE EOSINOPHIL, CELLS/uL
measured = [
    ("CNC1=Nc2ccc(Cl)cc2C(c2ccccc2)=[N+]([O-])C1 [CHLORDIAZEPOXIDE]", 40),
]

Identify ABSOLUTE EOSINOPHIL associated with the compound "CN(C)CCC=C1c2ccccc2CCc2ccccc21"
58.83

Answer with reported ABSOLUTE EOSINOPHIL of "CCN(C(C)=O)c1cccc(-c2ccnc3c(C#N)cnn23)c1"
58.83

Supply reported ABSOLUTE EOSINOPHIL belonging to this compound: CCCC(C)C1(CC)C(=O)NC(=O)NC1=O (stereo not drawn)
32.5

Give the value of ABSOLUTE EOSINOPHIL reported for the following: O=c1[nH]c(=O)n(C2CCCO2)cc1F (stereo not drawn)
168.33

Name the recorded ABSOLUTE EOSINOPHIL of the compound listed here: "NC12CC3CC(CC(C3)C1)C2"
58.83

Identify the reported ABSOLUTE EOSINOPHIL for the following entry. NC(=O)c1cccnc1 [NIACINAMIDE]
46

Check the records and state ABSOLUTE EOSINOPHIL for CN(C)C(=O)Oc1cccc([N+](C)(C)C)c1.[Br-] [NEOSTIGMINE BROMIDE]
32.5

----------
- Organism: Rattus norvegicus
- runDescription: DrugMatrix - Regimen: Daily Repeat
- Type: toxicity, organism-based, Sprague-Dawley
- Parameters: regimen Daily Repeat, gender Male, age 6-8 weeks
- conditionContext: in vivo, po, 0 mg/kg, 120 h, tissue Plasma, route oral GAVAGE, dose level Control, time 5 day, […]
Listed next: entries and their corresponding CREATINE PHOSPHOKINASE.
Please reply with the bare figure in u/L and do not write the unit itself.

# compound, valueObserved
data = [
    ("c1ccoc1", 368.5),
    ("CCc1ccc(CCOc2ccc(CC3SC(=O)NC3=O)cc2)nc1 (configuration not stated)", 226.17),
    ("CC(=O)Oc1ccccc1C(=O)O", 256.17),
]

Supply reported CREATINE PHOSPHOKINASE belonging to this compound: "CC(C)c1c(C(=O)Nc2ccccc2)c(-c2ccccc2)c(-c2ccc(F)cc2)n1CC[C@@H](O)C[C@@H](O)CC(=O)O"
411.33

Let me know recorded CREATINE PHOSPHOKINASE for "CCCCC(=O)N(Cc1ccc(-c2ccccc2-c2nnn[nH]2)cc1)[C@H](C(=O)O)C(C)C" , thanks.
167.33

Item "O=c1c(-c2ccc(O)cc2)coc2cc(O)cc(O)c12" : provide CREATINE PHOSPHOKINASE
411.33

Indicate its recorded CREATINE PHOSPHOKINASE; the compound in question is CS(=O)(=O)Nc1ccc([N+](=O)[O-])cc1Oc1ccccc1 [NIMESULIDE]
355.33

----------
- Organism: Rattus norvegicus
- runDescription: DrugMatrix - Regimen: Daily Repeat
- Assay type: toxicity, organism-based, Sprague-Dawley
- Set-up: regimen Daily Repeat, gender Male, age 6-8 weeks
- conditionContext: in vivo, iv, 0 mg/kg, 72 h, tissue Plasma, dose level Control, time 3 day, vehicle 100 % SALINE
metric: PHOSPHORUS

Observe how each entry below is paired with its result.
# molecule, PHOSPHORUS
rows = [
    ("C[N+](C)(C)CCOC(=O)CCC(=O)OCC[N+](C)(C)C.[Cl-].[Cl-] [SUCCINYLCHOLINE CHLORIDE]", "12.37 mg/dL"),
    ("COc1cccc2c1C(=O)c1c(O)c3c(c(O)c1C2=O)C[C@@](O)(C(C)=O)C[C@@H]3O[C@H]1C[C@H](N)[C@H](O)[C@H](C)O1 [DAUNORUBICIN]", "12.68 mg/dL"),
    ("O=C(O)P(=O)(O)O [FOSCARNET]", "11.13 mg/dL"),
    ("N=C(N)c1ccc(OCCCCCOc2ccc(C(=N)N)cc2)cc1 [PENTAMIDINE]", "12.37 mg/dL"),
]

Consider the additional molecule presented here.
Supply recorded PHOSPHORUS for O=c1[nH]c(=O)n([C@H]2C[C@H](O)[C@@H](CO)O2)cc1F [FLOXURIDINE] here.
11.63 mg/dL

----------
In this section we review reported GLUCOSE values for a set of compounds.
- Organism: Rattus norvegicus
- runDescription: DrugMatrix - Regimen: Daily Repeat
- Format: toxicity, organism-based, Sprague-Dawley
- Parameters: regimen Daily Repeat, gender Male, age 6-8 weeks
- conditionContext: in vivo, iv, 0 mg/kg, 72 h, tissue Plasma, dose level Control, time 3 day, vehicle 100 % SALINE
Report the figure in mg/dL without appending any unit label.

State, in one line, measured GLUCOSE of "N=C(N)c1ccc(OCCCCCOc2ccc(C(=N)N)cc2)cc1"
178.33

Note down GLUCOSE recorded for "COc1cccc2c1C(=O)c1c(O)c3c(c(O)c1C2=O)C[C@@](O)(C(C)=O)C[C@@H]3O[C@H]1C[C@H](N)[C@H](O)[C@H](C)O1"
157

----------
Recorded NEUTROPHIL by entry
- Species on record: Rattus norvegicus
- runDescription: DrugMatrix - Regimen: Daily Repeat
- Assay type: toxicity, organism-based, Sprague-Dawley
- Parameters: regimen Daily Repeat, gender Male, age 6-8 weeks
- conditionContext: in vivo, po, 0 mg/kg, 120 h, tissue Blood, route oral GAVAGE, dose level Control, time 5 day, vehicle .5 % CMC
Numbers only here, please. The scale is %.

Reference set (4 entries):
# compound, NEUTROPHIL (%)
measured = [
    ("COc1ccccc1[N+](=O)[O-]", 12.67),
    ("NC(=O)N1c2ccccc2CC(=O)c2ccccc21 [OXCARBAZEPINE]", 6.67),
    ("C#C[C@]1(O)CC[C@H]2[C@@H]3CCC4=CC(=O)CC[C@]4(C)[C@H]3CC[C@@]21C", 11.97),
    ("COc1ccc2c(c1OC)C(=O)O[C@@H]2[C@H]1c2c(cc3c(c2OC)OCO3)CCN1C", 11.97),
]

Now examine the next entry.
Provide measured NEUTROPHIL value, entry: "C[C@@](Cc1ccc(O)c(O)c1)(NN)C(=O)O.O"
8.33

----------
- Species on record: Rattus norvegicus
- runDescription: DrugMatrix - Regimen: Daily Repeat
- Type: toxicity, organism-based, Sprague-Dawley
- Design: regimen Daily Repeat, gender Male, age 6-8 weeks
- conditionContext: in vivo, iv, 0 mg/kg, 72 h, tissue Blood, dose level Control, time 3 day, vehicle 100 % SALINE
metric: ERYTHROCYTE COUNT (x10E6/uL)
Form entry: value (x10E6/uL) — number only.

# molecule, ERYTHROCYTE COUNT, x10E6/uL
records = [
    ("O=c1[nH]c(=O)n([C@H]2C[C@H](O)[C@@H](CO)O2)cc1F", 5.46),
    ("N=C(N)c1ccc(OCCCCCOc2ccc(C(=N)N)cc2)cc1", 5.68),
    ("O=C(O)P(=O)(O)O", 5.47),
    ("C[N+](C)(C)CCOC(=O)CCC(=O)OCC[N+](C)(C)C.[Cl-].[Cl-] [SUCCINYLCHOLINE CHLORIDE]", 5.68),
]

// below: ERYTHROCYTE COUNT requested for another molecule
Please give measured ERYTHROCYTE COUNT of the following entry: "COc1cccc2c1C(=O)c1c(O)c3c(c(O)c1C2=O)C[C@@](O)(C(C)=O)C[C@@H]3O[C@H]1C[C@H](N)[C@H](O)[C@H](C)O1"
5.39
